Reference source: PubChem BioAssay AID1259312

Reported fold change values follow for various molecules
Test: survival after telomere uncapping, modulators, primary screen, cell-based (AID 1259312);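 note: virus expresses mutant telomerase RNA that uncaps telomeres and kills cells; compound added 2 days after infection so exposure lasts 3 days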
Settings: HCT116 + Ad-hTR-mut, MTT, 5 d; at 10 µM, active compounds read high
The whole screen tested about 4,500 compounds, of which about 200 (4.4%) were called active. For the sample, actives were picked, then their nearest neighbours and some compounds at random.
Lab note: record just the number, no unit beside it.

Use these answered entries as a reference point.
>  <sample-smiles>
COC(=O)Cn1c(=O)c2ccccc2n(CC(=O)OC)c1=O

>  <fold change>
-1.31

$$$$
>  <sample-smiles>
O=S1(=O)N=C(N2CCCc3ccccc32)c2ccccc21

>  <fold change>
1.46

$$$$
>  <sample-smiles>
O=C(O)CCCn1c(=O)n(CCCC(=O)O)c2ccccc21

>  <fold change>
3.81

$$$$

Incoming: Return fold change for the following molecule: O=C(c1ccc(COc2ccc(I)cc2)o1)N1CCCC1
Outgoing: -1.09
